# Assay protocol: protease stability score; higher = more stable; yeast display proteolysis, trypsin and chymotrypsin;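 further: relative to predicted unfolded state with 0 unfolded-like and 1 meaning tenfold more protease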
Lab note: anything with protease stability score at or over 1 counts as y; the rest go in n.

DEHREFAKHVLEALVRALETGDEDTIRELFDPNYRIEIGDKTVIGRKYWELFIRRVDHIEVHIIIRDFDVQGNKVIIRGDSHIHLNYDGRTLDIQHHVNFVIRKVDGKWVFHSEHFI :: y
DEDRESARWLFEIHSRVFETGDEDSLHRLFDPNARFDINGREVHGMDLWIHLLKHIRVSVKDMKIRRHKSVNGRLETDYDSTLSFHVGDKTIELEVRVILVSHKVNGRWEIKEEIVH :: y
REEEEVVREIARRVIKSWITGNEHDMQEFADPHVRIFIGDKEIIGMEILNEILHRIKNITIRINMRHVDVQGDKVDLEGELEIRVNGQTERHDSRHHFDVVNGRIKIIEIQWD :: n
DEERKSTELALKHWHESMRTGDEHDTRRMMDPNVRVEIGDKTYVGREDVLEFMHRLGANHVEHFEIEDWKIVNGKVVMHGHSRVRIGDFEANTEVIIFSQKFNGRWFLESVIIV :: n

Qu. Given the entry DHKDELAHRLVEHILKLLLTGDEEHWYELLDPNVRIHINGRNSVGREEALKVIQFFWELLGVKHIELKEVRFQGDKVHSDTRLDINGVKSRVRIEVIIINGRIDEVRIDIR , answer whether its protease stability score meets or surpasses 1.
Ans. y

Qu. Given the entry DEESEDAKRVLDEWLHMLDTGNEERLHELADPNMRFDVNGKEIHGMEIWQKEMKRSLTHHGAEMHHRIRTIEVQGNKILVDGELIINFNGRTYLHKIHIIFQKFDGRWHVESLTIK , answer whether its protease stability score meets or surpasses 1.
Ans. n

Qu. Given the entry HEDEDLLEELARKYKHHLETGDEHIIRRLVDPHVRIEQGEKKLIGREEFLRILTELLRSWGVTRFEFRIEDFRLQGDKAHMRGSVEVGDFHHDVEIVSRKIDGRWVITHYHEI , answer whether its protease stability score meets or surpasses 1.
Ans. n

Qu. Given the entry SEDEEWVSLLATLILRVLLTGDEDIWKKLADPNTIHDIGEKHFHGREEIARFWMELRIKSFHVRDMDVVGDFFHIRTHMDVSIDGKDIRTDVEIHILIINGRVKRQRFEFH , answer whether its protease stability score meets or surpasses 1.
Ans. n

Qu. Given the entry DKDDHDFERVLRIFIESIRTGDEDSIRRLADPSVKHVVNGKEFHGREDWEEMIRRIDHIRDFELKSVSIYNGKIEVDGVLTGIFNGREDKTHVHIIMMKVNGRWYIKSWELK , answer whether its protease stability score meets or surpasses 1.
Ans. y

Qu. Given the entry SREEELAKKLLEIYSRSVETGDWKKLFELMDPNTRVEQGEWHFHGREEFHKLVHKFLERADVVHVEIDRIKVIGDFVHIDVVLHIHQGEFHHVVRTRLDYLKFNGRWVLQTIRIE , answer whether its protease stability score meets or surpasses 1.
Ans. y

Qu. Given the entry SEDMERAESFHREWLEFSRTGDEDTLRSLLDPNARLRYGDKEYHGMDSLSRVDRELRVHDSRVHDLRIIDGRVHMDVDLDGTYNGKRVLLHTHFVVEKIDGRWILRSVHIH , answer whether its protease stability score meets or surpasses 1.
Ans. n

Qu. Given the entry SEMHEDAEEVLRRISHYLNTGDEDSFLEMADPHTRIRVGNKEYIGREWSLVLIEKVKGARQEIRIELKDVNLVNGRLEVDGRFRLHYRFNGKTVDEHRNVIVYSYKFNGRWEIKSEQVD , answer whether its protease stability score meets or surpasses 1.
Ans. y

Qu. Given the entry DEDREFLIEMIELFMKFLLTGDWEQFAHLADPNDRFNVNGRDNHGREVWIKEVEEMRIHSLHIEDQDAFNGVIHVDFRVEGHFDGRTHIQKVEIHIRIVNGRVKSVEHHIH , answer whether its protease stability score meets or surpasses 1.
Ans. n

Qu. Given the entry NEDEKILEEAARLLFKALHTGDETTMLRLLDPNVRLHINGRDLIGREEMDRWWQELGLERISVHLDHLETHYIGNKIEIYIRGTVEFNGVRREIDVHNHALKVNGRWELKNVEIRHR , answer whether its protease stability score meets or surpasses 1.
Ans. n

Qu. Given the entry SETERYNEELLTKWFHAEHTGNFEMLQRLIDPHARIDINGVEHIGWRQFTKSLEDFGIDHIHHLKIDHFRVFNGRLFIDVTTDGTINGQRHKTKVLIRIVLYNGVIHEMSIEWV , answer whether its protease stability score meets or surpasses 1.
Ans. y

Qu. Given the entry REEEEHLERVMSLILLIMSTGDFKTLSELFDPHARLRVGDKHLIGWSFVADWIVKFKNMQLRHHRRHVVNGVVEVEDEFRVGDKRFTLRLLFLVVDGVVKEVHIEIEDR , answer whether its protease stability score meets or surpasses 1.
Ans. n

Qu. Given the entry SEEEERLRTIAEVLLHLLLTGDEEHLERLMDPHARYEQGDKHAIGREEVSHLFRRLLEHMRTREIHLHRWHSVNGVIYLDTRVIMEVNGRRIDTDTKVVVVVVDGKVRSMRNQFN , answer whether its protease stability score meets or surpasses 1.
Ans. n

Qu. Given the entry SEEDRSSREAVEIYIWIIETGDEHLMEEFLDPHVRSHQGEFHSHGREVAHVYVKKFKNLKVRVREVRTQGDKVIIISEMRIGDFRLELTIIIWKYNGKWIVQEVDIK , answer whether its protease stability score meets or surpasses 1.
Ans. y

Qu. Given the entry DEDKKVFETALRILIHYERTGDWELLHRLADPNTRMIQGDKLHIGREKAKEFINKWTEEMRPTDVRIDHVEIINGRIHIEGTTHGDVNGQRHDLEVHILSIKVDGRWRLKEFELK , answer whether its protease stability score meets or surpasses 1.
Ans. y

Qu. Given the entry DERQHEARKVFLEWIRREVTGDFERVRHLADPNMRMDINGVEHHGRDRMSELIFRQLEEMRIEIHIRHYHVIGEKVHANIEMRVRQGDWDETRTIEIIFVVIDGRLHDYTVHIL , answer whether its protease stability score meets or surpasses 1.
Ans. n

Qu. Given the entry DERERDARKAVKDFIESIRTGDEDEIEKLLDPHVRVDAPNHERHGREEVVEELREMRIEIRDVRFRHIHVQGNKIEVHVRVHGSLMINGREYRIDTTMIIIMEKIDGRWILTHIEEK , answer whether its protease stability score meets or surpasses 1.
Ans. y

Qu. Given the entry SRIEKLIEHLVHLWLEIWRTGDEHSFTRLLDPHVRLRIGDKHFIGREDVVKFLRDHEKEWREDDVEIRDIRTQGDFLEVEITITGRFNGRDITREFRITMIVVDGRVKEIRISYE , answer whether its protease stability score meets or surpasses 1.
Ans. y

Attribution: the NTF2 design screens of Basanta et al. (2020)
